- assay procedure: Plasma concentration of compound of Formula I in the PET occupancy study
- Type: in vivo
- measurement context: human, single oral dose 0.25 mg, approx. 1 h, healthy subjects

compound | unit annotation | concentration at 1 h
CC(=O)Nc1nc(F)c(CN2CC[C@H](OCc3noc(C)n3)C[C@@H]2C)s1 [compound of Formula I] | ng/mL | 0.595

====

- assay procedure: Plasma concentration of compound of Formula I in the PET occupancy study
- Type: in vivo
- measurement context: human, single oral dose 1 mg, approx. 8 h, healthy subjects
property: concentration at 8 h (ng/mL)

structure as smiles | data value
CC(=O)Nc1nc(F)c(CN2CC[C@H](OCc3noc(C)n3)C[C@@H]2C)s1 | 2.45

====

- assay procedure: Plasma concentration of compound of Formula I in the PET occupancy study
- Assay type: in vivo
- measurement context: human, single oral dose 0.25 mg, approx. 8 h, healthy subjects
- From the text: Healthy subjects are assigned to 1 of 4 cohorts with 4 subjects in each cohort completing the study. All subjects undergo one baseline PET scan and two post-dose PET scans. […] Arterial blood samples are collected from all subjects during each PET scan to measure radioactivity to provide input for the PET tracer kinetic analysis. […]
property: concentration at 8 h

structure as smiles | property | data value
CC(=O)Nc1nc(F)c(CN2CC[C@H](OCc3noc(C)n3)C[C@@H]2C)s1 | concentration at 8 h | 0.294 ng/mL

====

- assay procedure: Single ascending dose study in healthy subjects, pharmacokinetics of compound of Formula I
- Assay type: in vivo, human
- measurement context: human, plasma, mean, single oral dose 2 mg, 12 h
property: concentration at 12 h (ng/mL)

structure as smiles | unit annotation | data value
CC(=O)Nc1nc(F)c(CN2CC[C@H](OCc3noc(C)n3)C[C@@H]2C)s1 | ng/mL | 4.24

====

- assay procedure: Plasma concentration of compound of Formula I in the PET occupancy study
- Assay type: in vivo
- measurement context: human, single oral dose 1 mg, approx. 1 h, healthy subjects
property: concentration at 1 h

compound | data value
CC(=O)Nc1nc(F)c(CN2CC[C@H](OCc3noc(C)n3)C[C@@H]2C)s1 [compound of Formula I] | 6.24 ng/mL

====

- assay procedure: Single ascending dose study in healthy subjects, pharmacokinetics of compound of Formula I
- Type: in vivo, human
- measurement context: human, plasma, mean, single oral dose 0.6 mg, 2 h

compound | concentration at 2 h
CC(=O)Nc1nc(F)c(CN2CC[C@H](OCc3noc(C)n3)C[C@@H]2C)s1 [compound of Formula I] | 4.84 ng/mL

====

- assay procedure: Plasma concentration of compound of Formula I in the PET occupancy study
- Assay type: in vivo
- measurement context: human, single oral dose 5 mg, approx. 5 h, healthy subjects

structure as smiles | concentration at 5 h (ng/mL)
CC(=O)Nc1nc(F)c(CN2CC[C@H](OCc3noc(C)n3)C[C@@H]2C)s1 | 30.6

====

- assay procedure: Single ascending dose study in healthy subjects, pharmacokinetics of compound of Formula I
- Type: in vivo, human
- measurement context: human, plasma, single oral dose 16 mg, geometric mean (% CV)

structure as smiles | Cmax (ng/mL)
CC(=O)Nc1nc(F)c(CN2CC[C@H](OCc3noc(C)n3)C[C@@H]2C)s1 | 199

====

- assay procedure: Plasma concentration of compound of Formula I in the PET occupancy study
- Assay type: in vivo
- measurement context: human, single oral dose 1 mg, approx. 2 h, healthy subjects

structure as smiles | concentration at 2 h, ng/mL
CC(=O)Nc1nc(F)c(CN2CC[C@H](OCc3noc(C)n3)C[C@@H]2C)s1 | 5.75
